method: wn = mass fraction of the nth substance listed
conditions: 298.15 K; 101.3 kPa; Liquid; w1 = 0.3
measuredMetric: viscosity (mPa·s)

CC(C)(N)CO [2-amino-2-methylpropan-1-ol] + O    3.79
CN(CCO)CCO [N-methyldiethanolamine] + O    3.02

a: OCCNCCO [diethanolamine] + O
b: NCCO [2-aminoethan-1-ol] + O
Q: Between item a and item b , which reported viscosity is smaller? Refer to your chosen entry by its label in the reply.
A: b

====

method: wn = mass fraction of the nth substance listed
conditions: 303.15 K; 101.3 kPa; Liquid; w1 = 0.3
measuredMetric: viscosity (mPa·s)

CN(CCO)CCO [N-methyldiethanolamine] + O    2.68
OCCNCCO [diethanolamine] + O    2.57

a: CC(C)(N)CO [2-amino-2-methylpropan-1-ol] + O
b: NCCO [2-aminoethan-1-ol] + O
Q: Returns: the argument ( a or b ) having the larger viscosity. Refer to your chosen entry by its label in the reply.
A: a
(a: 3.21 mPa·s, b: 2.1 mPa·s)
